From: ChEMBL document CHEMBL6134778

experiment: Clearance in Sprague-Dawley rat at 2.5 mg/kg, iv by LC-MS/MS analysis; assay type: ADME, organism-based; conditions: in vivo
measure-name: clearance (mL/min/kg)
Numbers only, in mL/min/kg.

Consider the compound shown here: CC(C)NC(=O)N1CC2(C1)C(=O)N(Cc1nc3cc(Cl)ccc3n1CCCC#N)c1ccccc12 What is its recorded clearance?
21

* * *

system: Respiratory syncytial virus; assay: Antiviral activity against RSV rgRSV224 (A2-GFP) harboring eGFP infected in human HeLa cells assessed as reduction in virus replication measured after 3 days by laser microscopy; type: functional, organism-based; settings: 72 h
measure-name: EC50 (nM)
Numbers only, in nM.

Sample CS(=O)(=O)N1CC2(C1)C(=O)N(Cc1nc3cc(Cl)ccc3n1CCCC(F)(F)F)c1ccccc12 — what was its EC50?
1.6

* * *

assay: Bioavailability in Sprague-Dawley rat assessed as dose released at 50 mg/kg, IM measured over 12 weeks by LC-MS/MS analysis; format: ADME, organism-based; conditions: in vivo
Assignment: determine reported bioavailability for the given compounds.
Answers are plain numbers, in %.

- structure-notation: "CS(=O)(=O)N1CC2(C1)C(=O)N(Cc1nc3cc(Cl)ccc3n1CCCC(F)(F)F)c1ccccc12"
  unit-abbreviation: "%"
  reported-value: 52
- structure-notation: "CC(C)(O)C(=O)N1CC2(C1)C(=O)N(Cc1nc3cc(Cl)ccc3n1CCCC(F)(F)F)c1ccccc12"
  unit-abbreviation: "%"
  reported-value: 85
- structure-notation: "CC(C)NC(=O)N1CC2(C1)C(=O)N(Cc1nc3cc(Cl)ccc3n1CCCC#N)c1ccccc12"
  unit-abbreviation: "%"
  reported-value: 21
- structure-notation: "O=C1N(Cc2nc3cc(Cl)ccc3n2CCCC(F)(F)F)c2cnccc2C12CN(S(=O)(=O)C1CC1)C2"
  unit-abbreviation: "%"
  reported-value: 88
- structure-notation: "CC(C)C(=O)N1CC2(C1)C(=O)N(Cc1nc3cc(Cl)ccc3n1CCCCF)c1cnccc12"
  unit-abbreviation: "%"
  reported-value: 142

Which measured bioavailability value corresponds to CC(C)NC(=O)N1CC2(C1)C(=O)N(Cc1nc3cc(Cl)ccc3n1CCCC(F)(F)F)c1cnccc12 ?
107

* * *

tested on: Canis familiaris; assay: Particle size for the 50th percentile of the cumulative volume distribution in Beagle dog at 20 mg/kg, IM […]; assay type: ADME, organism-based, Canis lupus familiaris; conditions: in vivo
Label Not satisfied if Particle size (D50) falls below 5 um; label Satisfied in every other case.

- structure-notation: "CC(C)(O)C(=O)N1CC2(C1)C(=O)N(Cc1nc3cc(Cl)ccc3n1CCCC(F)(F)F)c1ccccc12"
  classification: "Not satisfied"
- structure-notation: "O=C1N(Cc2nc3cc(Cl)ccc3n2CCCC(F)(F)F)c2cnccc2C12CN(S(=O)(=O)C1CC1)C2"
  classification: "Satisfied"

Does CC(C)C(=O)N1CC2(C1)C(=O)N(Cc1nc3cc(Cl)ccc3n1CCCCF)c1cnccc12 have a reported Particle size (D50) of at least 5 um?
Satisfied

Reported Particle size (D50) at or above 5 um? CC(C)NC(=O)N1CC2(C1)C(=O)N(Cc1nc3cc(Cl)ccc3n1CCCC#N)c1ccccc12
Satisfied

* * *

assay: Equilibrium solubility of the compound […] at pH 7 measured after 3 days by LC-MS/MS analysis; format: physicochemical; conditions: time 3 day
Consider the following compounds; for each one, report its solubility at 72 h.
One number for each entry, in µM.

Look over these answered cases.
- structure-notation: "CC(C)C(=O)N1CC2(C1)C(=O)N(Cc1nc3cc(Cl)ccc3n1CCCCF)c1cnccc12"
  unit-abbreviation: "µM"
  reported-value: 361
- structure-notation: "CC(C)(O)C(=O)N1CC2(C1)C(=O)N(Cc1nc3cc(Cl)ccc3n1CCCC(F)(F)F)c1ccccc12"
  unit-abbreviation: "µM"
  reported-value: 0.74

Return reported solubility at 72 h; argument: CC(C)NC(=O)N1CC2(C1)C(=O)N(Cc1nc3cc(Cl)ccc3n1CCCC(F)(F)F)c1cnccc12
11
